system: MCF7 breast; assay: NCI-60 one-dose screen, 48 h (100 = growth as untreated, 0 = no growth, -100 = all killed); conditions: 10 µM unless noted
About 83,000 compounds went through this panel and 20% of them were active in at least one assay; those are over-represented in the sample as a whole.
Recorded growth values for a group of compounds are listed next.
Field format: number, assumed %, no unit text.

# compound, measurement
records = [
    ("Cc1ccccc1/C=C/c1nn2c(-c3ccoc3C)nnc2s1", 83.9),
]

response.value for O=C1c2c(c3c4cccnc4[nH]c3c3ccc4ccccc4c23)C(=O)N1CCN1CCNCC1 (field: growth) = 27.8

response.value for O=C(Nc1ccc(Cl)cc1)Nc1nc2ccc([N+](=O)[O-])cc2s1 (field: growth) = -15.4

response.value for Cc1ccc(-n2cc(/C=C/C(=O)c3ccc(S(C)(=O)=O)cc3)c(-c3ccc(S(C)(=O)=O)cc3)n2)cc1 (field: growth) = 64.8

response.value for N/C(=N\c1nc2c(Cl)cccc2s1)C(Cl)(Cl)Cl (field: growth) = 49.3

response.value for CCN(CC)CCN1C(=O)c2c(c3c4cc(Br)ccc4[nH]c3c3ccc4ccccc4c23)C1=O (field: growth) = -80

response.value for O=C(C[n+]1ccnc2ccccc21)c1ccc(O)c(O)c1 (field: growth) = 12.5

response.value for Cc1ccc(NC(=O)c2ccc(CN3CCN(C)CC3)c(C(F)(F)F)c2)cc1Oc1ccc(-c2[nH]nc3ncnc(N)c23)cc1 (field: growth) = 54

response.value for O=c1c2ccccc2nc(COc2ccccc2)n1/N=C/C=C/c1ccccc1 (field: growth) = 83.8

response.value for O=C(CCCCCCN1CC(=O)N2[C@@H](c3ccc(Cl)c(F)c3)c3[nH]c4ccccc4c3C[C@H]2C1=O)NO (field: growth) = 73.2

response.value for O=C1/C(=C/c2ccc([N+](=O)[O-])cc2)SC(=Nc2ccccc2)N1Nc1ccccc1 (field: growth) = 44.1

response.value for O=C(O)CNS(=O)(=O)c1ccc(Oc2ccc(S(=O)(=O)NCC(=O)O)cc2)cc1 (field: growth) = 93.2

response.value for CCCCCCCCCC[C@@H](C)[C@@H]1CC(=O)N[C@H]([C@@H](C)O)C(=O)N[C@@H](C)C(=O)N[C@H](C)C(=O)N[C@@H](CCC(N)=O)C(=O)N[C@H](Cc2ccc(O)cc2)C(=O)N[C@@H](C(C)CC)C(=O)O1 (stereo partly specified) (field: growth) = 38.9

response.value for NC(N)=NS(=O)(=O)c1ccc(N=NC2C(=O)NN(c3ccccc3)C2=O)cc1 (stereo unspecified) (field: growth) = 93.2

response.value for C/C=C/C=C1\C[C@H]2CO[C@H](O2)C1=O (field: growth) = 67.1

response.value for N#C/C(=C\c1ccc(N2CCCCC2)cc1)C(=O)Nc1sc2c(c1C#N)CCC2 (field: growth) = 87.3

response.value for Cc1nn(-c2ccc(Cl)cc2)c(C)c1N=Nc1ccc2oc(=O)ccc2c1 (field: growth) = 78.7

response.value for O=C(O)c1ccc(-n2cc(CNc3ccc(F)cc3)c(-c3ccc(C(F)(F)F)cc3)n2)cc1 (field: growth) = 67.8
